System: NCI-H460
assayOverview: NCI tumour cell line growth inhibition, 48 h
The source made the active and inactive calls. Rule as the data show it: active = GI50 up to about 1.1 µM and inactive = higher.
measurementLabel: GI50

Query: Returns the measured GI50 for the input compound. Input: CC(=O)OCC12CC(CC1OC(C)=O)c1ccccc12 (configuration not stated)
Reply: > 100 µM (inactive)

Query: Entry to check: COc1ccc(CC2c3c(cc(OC)c(OC)c3OC)CCN2C)cc1OC (configuration not stated)
Reply: > 100 µM (inactive)

Query: Entry to check: COc1ccc(Nc2ccc3ccccc3c2-c2c(O)ccc3ccccc23)cc1
Reply: 16.4 µM (inactive)

Query: Entry to check: CCOC(=O)C1Sc2ccccc2N=C1C (configuration not stated)
Reply: > 100 µM (inactive)

Query: Entry to check: CCN(CC)CCNc1ccc2nnn3c4ccc([N+](=O)[O-])cc4c(=O)c1c23
Reply: 3.93 µM (inactive)

Query: Entry to check: N=C(N)NS(=O)(=O)c1ccc(NC(=O)c2cccn3c(=O)c4ccccc4nc23)cc1
Reply: 53.1 µM (inactive)

Query: Entry to check: CC1C(c2ccccc2)=CCON1c1ccccc1 (configuration not stated)
Reply: > 100 µM (inactive)

Query: Entry to check: COc1ccc(N2C(=O)C3c4[nH]c5ccccc5c4C4CCCCC4C3C2=O)cc1 (configuration not stated)
Reply: 19.5 µM (inactive)

Query: Entry to check: O=c1c(O)c(-c2ccc(O)c(O)c2)oc2cc(O)cc(O)c12
Reply: 36.6 µM (inactive)

Query: Entry to check: O=S(=O)(c1ccccc1)c1ccc(-c2nc(-c3ccc4c(c3)Sc3ccccc3S4)cs2)cc1
Reply: > 100 µM (inactive)

Query: Entry to check: Cc1cc2nc(N3C(=O)/C(=C/Cc4ccco4)N=C3c3ccccc3)sc2cc1C
Reply: 23.6 µM (inactive)

Query: Entry to check: O=C(Nc1ccccc1)N(CCCCN(Cc1ccccc1)C(=O)Nc1ccccc1)Cc1ccccc1
Reply: > 100 µM (inactive)

Query: Entry to check: CCCCOP(=O)(OCCCC)/C(C#N)=C/c1ccco1
Reply: > 100 µM (inactive)

Query: Entry to check: CC(=O)Nc1ccc(/C=c2\sc3nnc(CCC(=O)Nc4ccccc4Cl)n3c2=O)cc1
Reply: > 10 µM (inactive)

Query: Entry to check: CCOC(=O)NC(=O)c1cn(CCNCCO)c(=O)[nH]c1=O
Reply: > 100 µM (inactive)

Query: Entry to check: O=C1Cc2c([nH]c3ccc(Cl)cc23)-c2ccccc2N1
Reply: > 100 µM (inactive)

Query: Entry to check: CCOC(=O)C1=CN/C(=C(/C)C(=O)OC)SC1C(=O)OCC (configuration not stated)
Reply: > 90.4 µM (inactive)

Query: Entry to check: Oc1ccc(C(c2ccc(O)cc2)c2ccc(O)cc2)cc1
Reply: 18.8 µM (inactive)

Query: Entry to check: CC12C/C(=C\c3ccccc3)C(=O)C3C1CCCC32
Reply: > 100 µM (inactive)

Query: Entry to check: CC(=O)CC(=O)Nc1ccccc1[N+](=O)[O-]
Reply: > 100 µM (inactive)

Query: Entry to check: CC(C)N1CN(c2ccccc2)C2(CCN(CCCC(=O)c3ccc(F)cc3)CC2)C1=O
Reply: 21.1 µM (inactive)

Query: Entry to check: Oc1c(N2CCCCC2)cc(-c2cc(N3CCCCC3)c(O)c3ccccc23)c2ccccc12
Reply: 43 µM (inactive)

---

Tested on: DMS-273
assayOverview: NCI tumour cell line growth inhibition, 48 h
Activity calls are given as the source filed them. Cut-off read from the data, not from the text of the source: active = GI50 up to about 1.1 µM and inactive = higher.
measurementLabel: GI50

Query: For the record O=c1c(O)c(-c2ccc(O)c(O)c2)oc2cc(O)cc(O)c12 , what value of GI50 is listed for DMS-273?
Reply: 49.7 µM (inactive)

Query: Entry to check: CS(=O)(=O)c1nc(N)nc2nc[nH]c12
Reply: > 100 µM (inactive)

Query: Entry to check: COc1cc(=O)oc(/C=C/CO)c1C
Reply: > 100 µM (inactive)

Query: Entry to check: COc1ccc(C(=O)O/N=C2/CCCCC2CN(C)C)cc1 (stereo not drawn)
Reply: > 100 µM (inactive)

Query: Entry to check: C=C1C(=O)OC2CC(C)C3C=CC(=O)C3CC12 (stereo not drawn)
Reply: 3.54 µM (inactive)

Query: Entry to check: Nc1nc(-c2ccco2)cc(-c2ccc(CO)o2)n1
Reply: > 100 µM (inactive)

Query: Entry to check: CSC1=NC=CCN1C
Reply: > 100 µM (inactive)

Query: Entry to check: CN(C)CC1CCCC/C1=N/OC(=O)c1ccc(Cl)c(Cl)c1 (stereo not drawn)
Reply: > 100 µM (inactive)

Query: Entry to check: COC1C=C(Nc2cccc(Cl)c2)C(=O)C1 (stereo not drawn)
Reply: 50.4 µM (inactive)

Query: Entry to check: S=C1OC2CCCC[C@H]2O1 (stereo partly drawn)
Reply: > 100 µM (inactive)

Query: Entry to check: N#Cc1ccc(Sc2ccccc2)cc1C#N
Reply: 19.1 µM (inactive)

Query: Entry to check: COC(=O)C(CCCCCCCC(C(=O)OC)C1=Nc2nnc(N)n2C1=O)C1=Nc2nnc(N)n2C1=O (stereo not drawn)
Reply: > 100 µM (inactive)

Query: Entry to check: N#CC(C(=O)CCC(=O)Nc1ccc(Cl)cc1)c1ccccc1Cl (stereo not drawn)
Reply: > 100 µM (inactive)

Query: Entry to check: Cc1cc(C)c(/C=N/NS(=O)(=O)c2ccccc2)c(C)c1
Reply: > 100 µM (inactive)

Query: Entry to check: Cc1nc2c(o1)/C(=N\c1ccccc1)c1nc(C)oc1/C2=N/c1ccccc1
Reply: 20 µM (inactive)

Query: Entry to check: CN(C)CC(=O)N1CCc2c([nH]c3ccccc23)C1c1cccnc1 (stereo not drawn)
Reply: 0.0187 µM (active)

Query: Entry to check: CCOC(C[C@H](O)[C@H]1COC(=S)S1)OCC
Reply: > 100 µM (inactive)

Query: Entry to check: O=C(NCCCCCCNC(=O)n1cc(F)c(=O)[nH]c1=O)NCCCOCCOCCCNC(=O)C(O)C(O)C(O)C(O)CO (stereo not drawn)
Reply: > 2.5 µM (inactive)

Query: Entry to check: Cc1cccc2c3ccc4c(c3n(C)c12)C(=O)C=CC4=O
Reply: 76 µM (inactive)

Query: Entry to check: CN1C/C(=C\c2ccco2)c2nc(N)nc(-c3ccco3)c2C1
Reply: 88.1 µM (inactive)

Query: Entry to check: CCCCCCCCCCCCCCCCOP(=O)(O)Oc1ccc(/C=C\c2ccc(OP(=O)(O)OCCCCCCCCCCCCCCCC)cc2)cc1
Reply: 25.1 µM (inactive)

Query: Entry to check: O=c1cc(-c2ccccc2)[nH]c2c(Cl)cccc12
Reply: 7.11 µM (inactive)

Query: Entry to check: COc1cc2c(cc1OC)[C@H]1C(COC(=O)c3ccccc3)CS/C(=N/c3ccccc3)N1CC2 (stereo partly drawn)
Reply: 74 µM (inactive)

Query: Entry to check: O=S(O)CCCCSSCc1ccccc1CSSCCCCS(=O)O
Reply: 21.1 µM (inactive)

Query: Entry to check: CCCCCCCCCCCCOC(=S)NC
Reply: 19.5 µM (inactive)

Query: Entry to check: CN1C/C(=C\C=C\c2ccccc2)C(=O)/C(=C/C=C/c2ccccc2)C1
Reply: > 100 µM (inactive)

Query: Entry to check: CC1=C2C(=CO[C@H](C)[C@H]2C)C(O)=C(C(=O)O)C1=O
Reply: 44 µM (inactive)

Query: Entry to check: CNC(=O)NC(CCCCNC(=O)OCc1ccccc1)C(=O)OCc1ccccc1 (stereo not drawn)
Reply: 35.9 µM (inactive)

Query: Entry to check: CCOC(OC(C)=O)[C@@H]1C=C[C@H](C)N(c2ccc([N+](=O)[O-])cc2)O1 (stereo partly drawn)
Reply: 3.19 µM (inactive)

Query: Entry to check: NCCN1C(=O)C2C3c4ccccc4C(c4ccccc43)C2C1=O (stereo not drawn)
Reply: > 100 µM (inactive)

Query: Entry to check: O=S(=O)(SCc1ccccc1)C(c1ccccc1)c1ccccc1
Reply: 27.4 µM (inactive)

Query: Entry to check: COc1cc(Nc2nc3cc(C(F)(F)F)ccc3nc2-c2ccccc2)cc(OC)c1OC
Reply: 22.8 µM (inactive)

Query: Entry to check: Cc1ccc(NC(=O)C(=O)Cc2nc3ccccc3o2)c(C)c1
Reply: > 100 µM (inactive)

Query: Entry to check: C/C(CC(=O)NCCc1ccccc1)=N\NC(=O)C[n+]1ccccc1
Reply: > 100 µM (inactive)

Query: Entry to check: CC(=O)O[C@H]1CCC2[C@@H]3CCC4=C(O)c5nocc5C[C@]4(C)C3CC[C@@]21C (stereo partly drawn)
Reply: > 100 µM (inactive)

Query: Entry to check: COc1cc2ccc(=O)oc2cc1O
Reply: 36.3 µM (inactive)

Query: Entry to check: O=C(O)C(CS)Nc1c2ccccc2[n+]([O-])c2ccccc12 (stereo not drawn)
Reply: > 100 µM (inactive)

Query: Entry to check: CC(=O)ON(C(C)=O)C1C(COC(c2ccccc2)(c2ccccc2)c2ccccc2)OC2OC3(CCCC3)OC21 (stereo not drawn)
Reply: 3.57 µM (inactive)

Query: Entry to check: COc1ccc(-c2cc(-c3ccccc3)c(C#N)c(=O)n2C2OC(CO)C(O)C(O)C2O)cc1 (stereo not drawn)
Reply: > 100 µM (inactive)

Query: Entry to check: CCc1cccc(C)c1NS(=O)(=O)c1ccccc1
Reply: > 100 µM (inactive)

Query: Entry to check: COc1ccc(OC)c2c(C(=O)O)c(Cc3ccccc3)ccc12
Reply: > 100 µM (inactive)

Query: Entry to check: CCN(CC)CCNc1ccc2nnn3c4ccc([N+](=O)[O-])cc4c(=O)c1c23
Reply: 5.16 µM (inactive)

Query: Entry to check: C=C1C(=O)O[C@H]2[C@H]1[C@H](OC(=O)/C(C)=C\C)CC(=C)[C@@H]1[C@H](O)[C@H]3O[C@@]3(C)[C@@]12O
Reply: > 100 µM (inactive)
